Recorded melting point values for a group of molecules are listed next.
experimental-endpoint: melting point

COCc1nc2nc[nH]c2c2nc(-c3ccc(-c4ccccc4)cc3)nn12 = ≥ 280 °C
c1ccc(-c2ccc(-c3nc4c5[nH]cnc5nc(C5CCCCC5)n4n3)cc2)cc1 = ≥ 280 °C
C[S+]([O-])CCc1nc2nc[nH]c2c2nc(-c3ccc(Cl)cc3)nn12 (stereo not drawn) = ≥ 218 °C (dec.)
CCCOc1ccc(-c2nc3c4[nH]cnc4nc(COC)n3n2)cc1 = ≥ 280 °C
CS(=O)(=O)CCc1nc2nc[nH]c2c2nc(-c3ccc(Cl)cc3)nn12 = ≥ 244 °C (dec.)
CSCCc1nc2nc[nH]c2c2nc(-c3ccc(Cl)cc3)nn12 = ≥ 257 °C (dec.)
CN(C)CCCc1nc2nc[nH]c2c2nc(-c3ccc(-c4ccccc4)cc3)nn12 = 227 to 230 °C (dec.)
FC(F)(F)c1nc2nc[nH]c2c2nc(-c3ccc(-c4ccccc4)cc3)nn12 = ≥ 280 °C
CCOP(=O)(Cc1nc2nc[nH]c2c2nc(-c3ccc(C(F)(F)F)cc3)nn12)OCC = 196 to 198 °C

The reported numbers originate from patent US6686343B1.
